Values compiled from patent US20020026053A1.

# assayed_system: EGFR (Homo sapiens)
# Construct: endogenous in cells; host or cells: A431 cells (lysate, captured with SUMO1 anti-EGFR antibody)
# Sequence (P00533 25-1210): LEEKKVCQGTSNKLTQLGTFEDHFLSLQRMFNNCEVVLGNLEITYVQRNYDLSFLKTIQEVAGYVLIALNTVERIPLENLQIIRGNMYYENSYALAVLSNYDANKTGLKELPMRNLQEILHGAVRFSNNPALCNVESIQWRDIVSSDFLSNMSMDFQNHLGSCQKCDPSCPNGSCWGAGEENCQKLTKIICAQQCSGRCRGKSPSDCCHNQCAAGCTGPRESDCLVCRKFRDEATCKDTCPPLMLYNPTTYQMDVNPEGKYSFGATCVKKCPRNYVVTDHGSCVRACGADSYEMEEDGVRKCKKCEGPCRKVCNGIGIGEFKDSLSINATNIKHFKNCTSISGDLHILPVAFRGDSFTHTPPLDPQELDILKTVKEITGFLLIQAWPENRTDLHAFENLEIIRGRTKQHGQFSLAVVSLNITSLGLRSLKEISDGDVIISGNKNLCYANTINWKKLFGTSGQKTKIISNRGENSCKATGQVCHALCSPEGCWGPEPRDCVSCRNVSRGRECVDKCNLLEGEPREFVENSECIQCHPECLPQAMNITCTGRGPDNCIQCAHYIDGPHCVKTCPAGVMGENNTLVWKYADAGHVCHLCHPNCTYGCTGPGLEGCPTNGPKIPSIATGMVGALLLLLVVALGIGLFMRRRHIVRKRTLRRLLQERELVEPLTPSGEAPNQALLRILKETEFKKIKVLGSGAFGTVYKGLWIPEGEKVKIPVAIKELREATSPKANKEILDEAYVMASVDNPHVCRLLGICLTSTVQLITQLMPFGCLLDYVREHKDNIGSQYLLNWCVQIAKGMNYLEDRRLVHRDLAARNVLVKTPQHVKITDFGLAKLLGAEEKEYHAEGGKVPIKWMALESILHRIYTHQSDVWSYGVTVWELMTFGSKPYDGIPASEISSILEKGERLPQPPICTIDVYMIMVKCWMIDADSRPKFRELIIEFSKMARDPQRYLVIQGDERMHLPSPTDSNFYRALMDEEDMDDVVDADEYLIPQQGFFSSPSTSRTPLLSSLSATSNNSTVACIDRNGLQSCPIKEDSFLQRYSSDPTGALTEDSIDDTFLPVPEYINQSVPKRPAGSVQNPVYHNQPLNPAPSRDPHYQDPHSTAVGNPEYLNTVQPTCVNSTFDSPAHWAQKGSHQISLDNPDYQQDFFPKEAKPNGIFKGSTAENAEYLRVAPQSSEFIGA
# protocol_summary: Biochemical EGFR Assay
# Design: concentration or dose not given beside the values
metric: Biochem EGFR % Inhibition (P.167) (%)

1) COC(=O)c1[nH]c(C)c(C=C2C(=O)Nc3c(Br)cc(Br)c(C)c32)c1C(=O)OC = −12.0
2) O=C1Nc2ccc(CCCl)cc2C1=Cc1cc(Br)cc(Br)c1O = 51.1
3) Cc1c(Br)cc(Br)c2c1C(=Cc1coc3ccccc3c1=O)C(=O)N2 = −17.3
4) O=C1Nc2c(Br)cc(Br)cc2C1=Cc1cc(C(F)(F)F)cc(C(F)(F)F)c1 = 24.9
5) O=C1Nc2ccc(S(=O)(=O)N3CCOCC3)cc2C1=Cc1c(F)cccc1F = 9.4
6) Cc1ccsc1C=C1C(=O)Nc2c(Br)cc(Br)c(C)c21 = −4.4
7) CCCCN(CCCC)c1ccc(C=C2C(=O)Nc3c(Br)cc(Br)c(C)c32)cc1 = −11.2
8) Cc1c(Br)cc(Br)c2c1C(=Cc1cc([N+](=O)[O-])cc(CCl)c1O)C(=O)N2 = 43.3
9) O=C1Nc2ccc(S(=O)(=O)Nc3ccc(C(F)(F)F)cc3)cc2C1=Cc1cccc(F)c1O = 24.2
10) CCOc1ccccc1C=C1C(=O)Nc2c(Br)cc(Br)c(C)c21 = 3.5
11) CNS(=O)(=O)c1ccc2c(c1)C(=Cc1cccc3ccccc13)C(=O)N2 = −0.3
12) Cc1c(Br)cc(Br)c2c1C(=Cc1cc(C(C)C)c(Oc3ccccc3)c(C(C)C)c1)C(=O)N2 = −0.7
13) O=C1Nc2c(Br)cc(Br)cc2C1=Cc1ccc(F)c(F)c1 = 28.8
14) N#Cc1ccccc1C=C1C(=O)Nc2ccc(S(=O)(=O)Nc3ccc(C(F)(F)F)cc3)cc21 = 27.4
15) COc1cc(OC)c(C=C2C(=O)Nc3c(Br)cc(Br)c(C)c32)c(OC)c1 = −28.0
16) Cc1c(Br)ccc2c1C(=Cc1ccc(Cl)cc1Cl)C(=O)N2 = −14.4
17) CC(C)(C)c1ccc(C=C2C(=O)Nc3ccc(CCCl)cc32)cc1 = 3.8
18) Cc1cc2occ(C=C3C(=O)Nc4c(Br)cc(Br)c(C)c43)c(=O)c2cc1C = −1.5

###

# Tested on: FLK-1 receptor
# protocol_summary: FLK-1 Assay (cellular/catalytic ELISA, VEGF-stimulated phosphotyrosine)
# Assay type: cell-based
# Design: concentration or dose not given beside the values
# assay_context: protocol P.110
// reported Flk Kinase % Inhibition (P.110) for each item listed
metric: Flk Kinase % Inhibition (P.110) (%)

1. Cc1ccc(C=C2C(=O)Nc3ccc(Br)c(C)c32)c(C)c1 = 10.1
2. Cc1ccc(C=C2C(=O)Nc3ccc(CCCl)cc32)c(C)c1 = 13.6
3. O=C1Nc2ccc(S(=O)(=O)Nc3ccc(C(F)(F)F)cc3)cc2C1=Cc1cc(O)ccc1[N+](=O)[O-] = −4.8
4. O=C1Nc2c(Br)cc(Br)cc2C1=Cc1ccc(O)cc1Cl = 7.4
5. O=C1Nc2ccc(S(=O)(=O)Nc3ccc(C(F)(F)F)cc3)cc2C1=Cc1ccc(Cl)c(Cl)c1 = 12.8
6. Cc1c(Br)cc(Br)c2c1C(=Cc1cccc(Oc3cccc(C(F)(F)F)c3)c1)C(=O)N2 = 14.5
7. CC(C)c1ccc(C=C2C(=O)Nc3ccc(S(=O)(=O)N4CCOCC4)cc32)cc1 = 9.5
8. CN(C)CCCOc1ccc(C=C2C(=O)Nc3ccc(S(=O)(=O)Nc4ccc(C(F)(F)F)cc4)cc32)cc1 = 24.5
9. Cc1[nH]c2ccccc2c1C=C1C(=O)Nc2ccc(S(=O)(=O)Nc3ccc(C(F)(F)F)cc3)cc21 = 39.1
10. O=C1Nc2ccc(I)cc2C1=Cc1ccc2ccccc2c1 = 12.2
11. COc1ccc(C=C2C(=O)Nc3c(Br)cc(Br)cc32)cc1O = −16.2
12. O=C1Nc2ccc(I)cc2C1=Cc1ccc(Oc2ccccc2)cc1 = 17.5
13. COc1ccc(C=C2C(=O)Nc3ccc(I)cc32)cc1F = 3.6
14. O=C1Nc2c(Br)cc(Br)cc2C1=Cc1cnc2ccccc2c1 = 5.7
15. O=C1Nc2ccc(I)cc2C1=Cc1cnc2ccccc2c1 = −17.0
16. COC1CCCN1C=C1C(=O)Nc2c(Br)cc(Br)cc21 (racemic) = 1.3
17. Cc1c(Br)ccc2c1C(=Cc1cccc(OCc3ccccc3)c1)C(=O)N2 = 16.4
18. O=C1Nc2ccc(I)cc2C1=Cc1cccc(O)c1O = −44.1
19. CCCCOc1ccc(C=C2C(=O)Nc3ccc(I)cc32)cc1 = 0.7
20. CC(C)(C)c1ccc(Oc2cccc(C=C3C(=O)Nc4ccc(S(=O)(=O)Nc5ccc(C(F)(F)F)cc5)cc43)c2)cc1 = 18.9
21. Cc1c(Br)ccc2c1C(=Cc1cccc(Oc3ccc(C(C)(C)C)cc3)c1)C(=O)N2 = 16.0
22. O=C1Nc2ccc(S(=O)(=O)Nc3ccc(C(F)(F)F)cc3)cc2C1=Cc1ccc(O)cc1Cl = 34.3
23. O=C1Nc2c(Br)cc(Br)cc2C1=Cc1ccsc1 = −13.1
24. CCOc1ccc(C=C2C(=O)Nc3ccc(S(=O)(=O)N4CCOCC4)cc32)cc1 = 15.1
25. CNS(=O)(=O)c1ccc2c(c1)C(=Cc1ccc3ccccc3n1)C(=O)N2 = 9.6
26. O=C1Nc2ccc(CCCl)cc2C1=Cc1cc(Br)cs1 = −2.8
27. CCOc1ccc(C=C2C(=O)Nc3c(Br)cc(Br)cc32)cc1 = −5.5
28. O=C1Nc2ccc(CCCl)cc2C1=Cc1ccoc1 = −2.0
29. CNS(=O)(=O)c1ccc2c(c1)C(=Cc1c(C)[nH]c3ccccc13)C(=O)N2 = −6.4
30. O=C1Nc2c(Br)cc(Br)cc2C1=Cc1ccc(Cl)c(Cl)c1 = −9.3
31. Cc1c(Br)cc(Br)c2c1C(=Cc1cccc(OCc3ccccc3)c1)C(=O)N2 = 1.6
32. O=C1Nc2c(Br)cc(Br)cc2C1=Cc1ccnc2ccccc12 = 4.2
33. Cc1c(Br)cc(Br)c2c1C(=Cc1ccsc1)C(=O)N2 = 5.8
34. O=C1Nc2c(Br)cc(Br)cc2C1=Cc1cc(F)ccc1F = −0.4
35. CCc1ccc(C=C2C(=O)Nc3ccc(CCCl)cc32)cc1 = −2.1
36. CC(C)c1ccc(C=C2C(=O)Nc3c(Br)cc(Br)cc32)cc1 = −8.5
37. CNS(=O)(=O)c1ccc2c(c1)C(=Cc1cccc(Oc3cccc(C(F)(F)F)c3)c1)C(=O)N2 = 17.2
